assayTarget: GST tagged LXRalpha LBD (ligand binding domain) (Homo sapiens)
Construct: purchased Invitrogen pv4655
assayExplanation: LanthaScreen TR-FRET Liver X Receptor Coactivator Assay, LXR alpha-LBD
Format: biochemical
conditions: activity at max dose (efficacy), relative to reference T0901317; read-out: LXR alpha act @ max dose (%)
quantityKind: Emax (%)

>>> print(df.to_string())
                                   compound  quantitykind  numericreadout
0  COc1ccc(C2(C(=O)N3CCC(C4CCN(c5ccc(C(=O)N(C)C)c(Cl)c5)CC4)CC3)CC2)cc1 [Example A-48]          Emax               0
1  CCN(C)C(=O)c1ccc(N2CCC(C3CCN(C(=O)[C@](O)(c4ccccc4)C(F)(F)F)CC3)CC2)cc1Cl [Example E-60]          Emax              34
2  CN(C)C(=O)c1ccc(N2CCC(C3CCN(C(=O)[C@@](C)(O)c4ccccc4)CC3)CC2)cc1Cl [Example A-53]          Emax              29
3  Cc1nc(CCN(C)C(=O)c2ccc(N3CCC(C4CCN(C(=O)[C@](O)(c5ccccc5)C(F)(F)F)CC4)CC3)cc2Cl)no1 [Example E-55]          Emax              41
4  CN(C)C(=O)c1ccc(N2CCC(C3CCN(C(=O)c4c(F)cccc4C(F)(F)F)CC3)CC2)cc1Cl [Example A-25]          Emax              54
5  CC(C)CC(O)(C(=O)N1CCC(C2CCN(c3ccc(C(=O)N(C)C)c(Cl)n3)CC2)CC1)C(F)(F)F (stereo not shown) [Example B-7]          Emax              55
6  CN(C)C(=O)c1ccc(N2CCC(C3CCN(S(=O)(=O)c4c(Cl)cccc4C(F)(F)F)CC3)CC2)cc1Cl [Example A-105]          Emax              44

====

assayTarget: GST tagged LXRalpha LBD (ligand binding domain) (Homo sapiens, UniProt Q13133)
Construct: purchased Invitrogen pv4655
Sequence (Q13133 209-447 limits assumed): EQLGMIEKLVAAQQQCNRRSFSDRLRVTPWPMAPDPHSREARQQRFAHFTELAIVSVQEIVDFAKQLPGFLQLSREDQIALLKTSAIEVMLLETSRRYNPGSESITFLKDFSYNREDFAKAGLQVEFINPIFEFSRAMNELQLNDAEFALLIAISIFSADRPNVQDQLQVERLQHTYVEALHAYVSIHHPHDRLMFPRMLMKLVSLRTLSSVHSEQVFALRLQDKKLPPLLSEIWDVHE
assayExplanation: LanthaScreen TR-FRET Liver X Receptor Coactivator Assay, LXR alpha-LBD
Assay type: biochemical
conditions: activity at max dose (efficacy), relative to reference T0901317; read-out: LXR alpha act @ max dose (%)
hey, just use class 1 if measured Emax is less than 40%, otherwise class 0

>>> print(df.to_string())
                                   compound  labelclass
0  COC(=O)C1CN(C(=O)c2ccc(N3CCC(C4CCN(C(=O)[C@](O)(c5ccccc5)C(F)(F)F)CC4)CC3)cc2Cl)C1     class 1
1  CN(C)C(=O)c1ccc(N2CCC(C3CCN(C(=O)C(O)(c4ccccc4)C(F)(F)F)CC3)CC2)nc1Cl (stereo in doubt) [Example B-9]     class 1
2  CN(C)C(=O)c1ccc(N2CCC(C3CCN(C(=O)C4(c5ccc(Cl)cc5)CCC4)CC3)CC2)cc1Cl     class 1
3  O=C(NC1CN(C(=O)c2ccc(N3CCC(C4CCN(C(=O)[C@](O)(c5ccccc5)C(F)(F)F)CC4)CC3)cc2Cl)C1)c1ccccc1     class 0
4  CN(C)C(=O)c1ccc(N2CCC(C3CCN(C(=O)C(C)(C)c4ccccc4)CC3)CC2)nc1Cl     class 0
